Hey, just so you know, these numbers are from ChEMBL document CHEMBL4622880.

- Study System: Taste receptor type 2 member 46 (Homo sapiens)
- Method Notes: Agonist activity at human TAS2R46 expressed in PMA-induced human BEAS2B cells assessed as antiinflammatory activity by measuring increase in IL-10 gene expression at 1 uM incubated for 18 hrs by qRT-PCR analysis
- Format: cell-based
Activity calls are given as the source filed them. The calls are words filed in the database; no cut-off is given here.
Select the correct class. Options are active, inactive and nothing else.

Observe how each entry below is paired with its result.
Compound: CC1=C2C=C(C(C)NC(=O)N=[N+]=[N-])CC[C@](C)(O)[C@@H]2[C@H]2[C@@H]3CC4(C)O[C@@]5(C)CC[C@H]6[C@H](C)C(=O)O[C@@H]6C4([C@@H]35)[C@@H]12 (some centres undefined)
Category Label: inactive
--
Compound: CC1=C[C@@H]2[C@H]3[C@H](C(C)=C4[C@H]5OC(=O)[C@@H](C)[C@@H]5CC[C@](C)(O)[C@@H]43)[C@@]13[C@@H]2[C@@](C)(O)CC[C@H]1[C@H](C)C(=O)O[C@@H]13
Category Label: inactive
--
Compound: COC(=O)[C@@H](C)C1=CC2=C(C)[C@H]3[C@H]([C@@H]4CC5(C)O[C@@]6(C)CC[C@H]7[C@H](C)C(=O)O[C@@H]7C35[C@@H]46)[C@H]2[C@@](C)(O)CC1
Category Label: active

query: What is the recorded call for this compound in the test? `CC1=C2C=C([C@H](C)C(=O)OCCc3ccccc3)CC[C@](C)(O)[C@@H]2[C@H]2[C@@H]3CC4(C)O[C@@]5(C)CC[C@H]6[C@H](C)C(=O)O[C@@H]6C4([C@@H]35)[C@@H]12`
result: inactive

---

- Study System: Taste receptor type 2 member 46 (Homo sapiens)
- Method Notes: Agonist activity at human TAS2R46 expressed in PMA-induced human BEAS2B cells assessed as antiinflammatory activity by measuring increase in IL-4 gene expression at 1 uM incubated for 18 hrs by qRT-PCR analysis
- Type: cell-based
Activity calls are given as the source filed them. The rule behind the calls is not given here.
Select the correct class. Options are Yes for active, No for inactive and nothing else.

Observe how each entry below is paired with its result.
Molecule: CC1=C2C=C([C@H](C)C(=O)OCCc3ccccc3)CC[C@](C)(O)[C@@H]2[C@H]2[C@@H]3CC4(C)O[C@@]5(C)CC[C@H]6[C@H](C)C(=O)O[C@@H]6C4([C@@H]35)[C@@H]12
Category Label: No
--
Molecule: CC1=C[C@@H]2[C@H]3[C@H](C(C)=C4[C@H]5OC(=O)[C@@H](C)[C@@H]5CC[C@](C)(O)[C@@H]43)[C@@]13[C@@H]2[C@@](C)(O)CC[C@H]1[C@H](C)C(=O)O[C@@H]13
Category Label: No
--
Molecule: COC(=O)[C@@H](C)C1=CC2=C(C)[C@H]3[C@H]([C@@H]4CC5(C)O[C@@]6(C)CC[C@H]7[C@H](C)C(=O)O[C@@H]7C35[C@@H]46)[C@H]2[C@@](C)(O)CC1
Category Label: Yes

query: What is the recorded call for this molecule in the test? CC1=C2C=C(C(C)NC(=O)N=[N+]=[N-])CC[C@](C)(O)[C@@H]2[C@H]2[C@@H]3CC4(C)O[C@@]5(C)CC[C@H]6[C@H](C)C(=O)O[C@@H]6C4([C@@H]35)[C@@H]12 (some centres undefined)
result: No
